B1: PhoQ; a variant is named by its letters at X, in order, P23837 (parent)
chain: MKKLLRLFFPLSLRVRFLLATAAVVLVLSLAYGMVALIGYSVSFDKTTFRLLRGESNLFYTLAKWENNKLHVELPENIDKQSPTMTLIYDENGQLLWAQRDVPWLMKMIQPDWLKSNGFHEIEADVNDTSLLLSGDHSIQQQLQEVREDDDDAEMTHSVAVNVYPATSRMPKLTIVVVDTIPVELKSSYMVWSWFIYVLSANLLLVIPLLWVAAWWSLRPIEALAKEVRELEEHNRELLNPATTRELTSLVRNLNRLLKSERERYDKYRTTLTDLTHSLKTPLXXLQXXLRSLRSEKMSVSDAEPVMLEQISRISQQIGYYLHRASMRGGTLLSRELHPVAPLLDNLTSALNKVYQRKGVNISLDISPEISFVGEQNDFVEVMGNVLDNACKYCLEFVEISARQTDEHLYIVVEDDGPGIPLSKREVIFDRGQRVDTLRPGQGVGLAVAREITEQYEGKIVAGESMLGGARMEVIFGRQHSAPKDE

Variants of: B1
ASSAY: enrichment ratio after two sorts for PhoP signalling (ratio (wild type AVST 3.29)); higher = more functional
ASSAY_CONTEXT: with PhoP (E. coli)
In all, about 140,000 sequences were measured (“enrichment ratio after two sorts for PhoP signalling”: median about 0, highest 2% from about 11 on). This is one part of a sample in which the highest values are shown more often than they occur.
Items are presented alongside their recorded enrichment ratio.
PARAMETER_MEASURED: enrichment ratio

* TQCD | 29.3
* YFHI | ≤ 0.25
* SPLM | ≤ 0.25
* SPMS | ≤ 0.25
* TQLQ | 5.05
* TQRA | ≤ 0.25
* STLM | 11.2
* SNML | 15.9
* SWML | ≤ 0.25
* STML | 13.4
* QRNG | ≤ 0.25
* HEML | ≤ 0.25
* NQCD | ≤ 0.25
* KKVQ | ≤ 0.25
* AKCD | 0.285
* HLIK | ≤ 0.25
* HKVH | ≤ 0.25
* TNCA | 8.8
* QMDS | ≤ 0.25
* KDPY | ≤ 0.25
* TIML | 2.74
* SNEL | ≤ 0.25
* TQNS | 12.8
* TKVI | 30.1
* MNSL | 4.59
* KKCD | ≤ 0.25
* TSGQ | 7.96
* GKLA | ≤ 0.25
* WNNL | ≤ 0.25
* TNSL | 12.2
* ANPM | ≤ 0.25
* STMS | 15.6
* TDGP | ≤ 0.25
* NKWL | ≤ 0.25
* SNRL | ≤ 0.25
* KFHQ | ≤ 0.25
* MVYD | ≤ 0.25
* SGEL | ≤ 0.25
* TKCD | 21.6
* LEYC | 4.32
* SEHH | ≤ 0.25
* GTVS | ≤ 0.25
* KTPQ | ≤ 0.25
* FVLE | ≤ 0.25
* TQNI | ≤ 0.25
* QAIA | ≤ 0.25
* YWEI | ≤ 0.25
* MVWN | 13.3
* ANNM | 12.9
* MLVQ | ≤ 0.25
* SMML | 14.5
* SWMS | ≤ 0.25
* LVSS | ≤ 0.25
* MEVN | 17.3
* TKVA | 18.4
* DYHL | ≤ 0.25
* LNSL | ≤ 0.25
* LDDP | ≤ 0.25
* AKVI | 5.34
* TKVK | ≤ 0.25
* SLCD | 17.9
* TNSK | ≤ 0.25
* SHVQ | ≤ 0.25
* MVAV | 11.4
* AICD | 5.13
* QMNG | 38.7
* MVYI | ≤ 0.25
* RISY | ≤ 0.25
* MVPA | ≤ 0.25
* QDCY | ≤ 0.25
* PLCD | ≤ 0.25
* SSPS | ≤ 0.25
* TKVG | 1.43
* KYML | ≤ 0.25
* LAAD | ≤ 0.25
* TQNY | 6.18
* FTYH | ≤ 0.25
* MVPY | ≤ 0.25
* MVNL | ≤ 0.25
* WHIR | ≤ 0.25
* GVAN | ≤ 0.25
* MVHV | ≤ 0.25
* MVYK | 17.6
* SGML | 17.4
* IYPH | ≤ 0.25
* TKVH | 12.3
* HHVH | ≤ 0.25
* KAHK | ≤ 0.25
* ANCD | 0.285
* HKVI | ≤ 0.25
* RKCR | ≤ 0.25
